Source: ChEMBL document CHEMBL3616392

Target: 3',5'-cyclic-AMP phosphodiesterase 4B (Homo sapiens, UniProt Q07343)
Sequence (Q07343 whole entry): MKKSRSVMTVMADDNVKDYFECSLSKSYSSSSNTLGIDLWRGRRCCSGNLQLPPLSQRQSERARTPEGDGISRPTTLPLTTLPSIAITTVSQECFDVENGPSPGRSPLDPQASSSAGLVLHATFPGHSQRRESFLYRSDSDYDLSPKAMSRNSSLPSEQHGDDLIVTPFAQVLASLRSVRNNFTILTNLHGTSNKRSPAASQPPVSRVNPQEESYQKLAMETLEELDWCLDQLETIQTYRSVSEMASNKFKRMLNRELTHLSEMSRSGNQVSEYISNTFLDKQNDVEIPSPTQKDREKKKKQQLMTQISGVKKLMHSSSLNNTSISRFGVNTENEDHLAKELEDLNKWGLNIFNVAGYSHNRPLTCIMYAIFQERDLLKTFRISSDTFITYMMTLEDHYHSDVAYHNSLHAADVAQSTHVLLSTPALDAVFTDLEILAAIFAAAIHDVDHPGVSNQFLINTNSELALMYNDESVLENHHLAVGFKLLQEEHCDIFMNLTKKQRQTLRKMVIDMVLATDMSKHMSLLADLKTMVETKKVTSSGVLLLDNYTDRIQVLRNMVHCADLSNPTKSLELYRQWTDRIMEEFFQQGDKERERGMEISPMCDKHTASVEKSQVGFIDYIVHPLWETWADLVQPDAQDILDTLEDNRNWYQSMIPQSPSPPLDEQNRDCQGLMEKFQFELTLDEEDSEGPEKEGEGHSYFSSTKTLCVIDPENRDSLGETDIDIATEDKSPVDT
Test: Inhibition of PDE4B isolated from human U937 cells using [3H]-cAMP as substrate after 30 mins
quantity: IC50 (µM)
Give bare numbers, in µM.

For orientation, consider the following solved cases.
COc1cc2c(cc1OC1CCCC1)CN(Cc1ccccc1F)CC2 43
COc1cc2c(cc1OC1CCCC1)CN(Cc1ccncc1)CC2 38.1

# return IC50 for each item in the list
1. COc1cc(CN2CCc3cc(OC)c(OC4CCCC4)cc3C2)ccc1O
2. COc1cc2c(cc1OC1CCCC1)CN(C(=O)c1ccccc1OC)CC2

Reply:
[26.8, 37]
